Origin of the recorded values: paper PMC11272611

Assay: Pharmacokinetics of alpelisib and capecitabine in plasma (LC-MS/MS, non-compartmental)
Assay type: in vivo, human
Details: human, plasma, oral, Dose level 1 (n=6): alpelisib 300mg+capecitabine 1000mg/m^2; plasma, day 1 of cycle 1; mean (range)
Property: Cmax; scope: individual molecules
assay.endpoint: Cmax (ng/mL)

>>> val("Cc1nc(NC(=O)N2CCC[C@H]2C(N)=O)sc1-c1ccnc(C(C)(C)C(F)(F)F)c1 [alpelisib]")
1240
>>> val("CCCCCOC(=O)Nc1nc(=O)n([C@@H]2O[C@H](C)[C@@H](O)[C@H]2O)cc1F [capecitabine]")
4160

###

Experiment: Pharmacokinetics of alpelisib and capecitabine in plasma (LC-MS/MS, non-compartmental)
Assay type: in vivo, human
Conditions: human, plasma, oral, Dose level 1 (n=6): alpelisib 300mg+capecitabine 1000mg/m^2; day 1 of cycle 1; mean (range); read-out: AUC0-6h
Property: AUC(0-t); scope: individual molecules
assay.endpoint: AUC(0-t) (ng·h/mL)

>>> val("CCCCCOC(=O)Nc1nc(=O)n([C@@H]2O[C@H](C)[C@@H](O)[C@H]2O)cc1F [capecitabine]")
6000
>>> val("Cc1nc(NC(=O)N2CCC[C@H]2C(N)=O)sc1-c1ccnc(C(C)(C)C(F)(F)F)c1 [alpelisib]")
5070

###

Property: half-life; scope: individual compounds
Test: Pharmacokinetics of alpelisib and capecitabine in plasma (LC-MS/MS, non-compartmental)
Assay type: in vivo, human
Details: human, plasma, oral, Dose level 1 (n=6): alpelisib 300mg+capecitabine 1000mg/m^2; day 1 of cycle 1; mean (range)
assay.endpoint: half-life (min)

>>> val("Cc1nc(NC(=O)N2CCC[C@H]2C(N)=O)sc1-c1ccnc(C(C)(C)C(F)(F)F)c1")
557
>>> val("CCCCCOC(=O)Nc1nc(=O)n([C@@H]2O[C@H](C)[C@@H](O)[C@H]2O)cc1F")
37.8

###

Assay: Pharmacokinetics of alpelisib and capecitabine in plasma (LC-MS/MS, non-compartmental)
Format: in vivo, human
Conditions: human, plasma, oral, across dose levels 0, 1 and 2; read-out: time to reach peak concentration (tmax)
assay.endpoint: Tmax

>>> val("Cc1nc(NC(=O)N2CCC[C@H]2C(N)=O)sc1-c1ccnc(C(C)(C)C(F)(F)F)c1")
"2 to 4 h"
>>> val("CCCCCOC(=O)Nc1nc(=O)n([C@@H]2O[C@H](C)[C@@H](O)[C@H]2O)cc1F")
"1 to 2 h"

###

Assay: Pharmacokinetics of alpelisib and capecitabine in plasma (LC-MS/MS, non-compartmental)
Format: in vivo, human
Conditions: human, plasma, oral; range across dose escalation (dose levels 0 to 2); read-out: area under the concentration-time-curve (AUC)
Property: AUC; scope: individual compounds
assay.endpoint: AUC

>>> val("CCCCCOC(=O)Nc1nc(=O)n([C@@H]2O[C@H](C)[C@@H](O)[C@H]2O)cc1F [capecitabine]")
"2670 to 8710 ng·h/mL"
>>> val("Cc1nc(NC(=O)N2CCC[C@H]2C(N)=O)sc1-c1ccnc(C(C)(C)C(F)(F)F)c1 [alpelisib]")
"4930 to 8190 ng·h/mL"

###

Experiment: Pharmacokinetics of alpelisib and capecitabine in plasma (LC-MS/MS, non-compartmental)
Assay type: in vivo, human
Settings: human, plasma, oral, Dose level 1 (n=6): alpelisib 300mg+capecitabine 1000mg/m^2; day 1 of cycle 1; ± SD; read-out: tmax
assay.endpoint: Tmax (h)

>>> val("CCCCCOC(=O)Nc1nc(=O)n([C@@H]2O[C@H](C)[C@@H](O)[C@H]2O)cc1F [capecitabine]")
2

###

Test: Pharmacokinetics of alpelisib and capecitabine in plasma (LC-MS/MS, non-compartmental)
Format: in vivo, human
Settings: human, plasma, oral, Dose level 0 (n=3): alpelisib 200mg+capecitabine 1000mg/m^2; day 1 of cycle 1; mean (range); read-out: AUC0-6h
Property: AUC(0-t); scope: individual molecules
assay.endpoint: AUC(0-t) (µg·h/mL)

>>> val("Cc1nc(NC(=O)N2CCC[C@H]2C(N)=O)sc1-c1ccnc(C(C)(C)C(F)(F)F)c1 [alpelisib]")
4.93
>>> val("CCCCCOC(=O)Nc1nc(=O)n([C@@H]2O[C@H](C)[C@@H](O)[C@H]2O)cc1F [capecitabine]")
2.67
